molecular target: Receptor tyrosine-protein kinase erbB-4 (Homo sapiens) (UniProt Q15303); conditions: at 1 µM;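 further: each value is a mean percent inhibition of ERBB4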
Sequence (Q15303 whole entry): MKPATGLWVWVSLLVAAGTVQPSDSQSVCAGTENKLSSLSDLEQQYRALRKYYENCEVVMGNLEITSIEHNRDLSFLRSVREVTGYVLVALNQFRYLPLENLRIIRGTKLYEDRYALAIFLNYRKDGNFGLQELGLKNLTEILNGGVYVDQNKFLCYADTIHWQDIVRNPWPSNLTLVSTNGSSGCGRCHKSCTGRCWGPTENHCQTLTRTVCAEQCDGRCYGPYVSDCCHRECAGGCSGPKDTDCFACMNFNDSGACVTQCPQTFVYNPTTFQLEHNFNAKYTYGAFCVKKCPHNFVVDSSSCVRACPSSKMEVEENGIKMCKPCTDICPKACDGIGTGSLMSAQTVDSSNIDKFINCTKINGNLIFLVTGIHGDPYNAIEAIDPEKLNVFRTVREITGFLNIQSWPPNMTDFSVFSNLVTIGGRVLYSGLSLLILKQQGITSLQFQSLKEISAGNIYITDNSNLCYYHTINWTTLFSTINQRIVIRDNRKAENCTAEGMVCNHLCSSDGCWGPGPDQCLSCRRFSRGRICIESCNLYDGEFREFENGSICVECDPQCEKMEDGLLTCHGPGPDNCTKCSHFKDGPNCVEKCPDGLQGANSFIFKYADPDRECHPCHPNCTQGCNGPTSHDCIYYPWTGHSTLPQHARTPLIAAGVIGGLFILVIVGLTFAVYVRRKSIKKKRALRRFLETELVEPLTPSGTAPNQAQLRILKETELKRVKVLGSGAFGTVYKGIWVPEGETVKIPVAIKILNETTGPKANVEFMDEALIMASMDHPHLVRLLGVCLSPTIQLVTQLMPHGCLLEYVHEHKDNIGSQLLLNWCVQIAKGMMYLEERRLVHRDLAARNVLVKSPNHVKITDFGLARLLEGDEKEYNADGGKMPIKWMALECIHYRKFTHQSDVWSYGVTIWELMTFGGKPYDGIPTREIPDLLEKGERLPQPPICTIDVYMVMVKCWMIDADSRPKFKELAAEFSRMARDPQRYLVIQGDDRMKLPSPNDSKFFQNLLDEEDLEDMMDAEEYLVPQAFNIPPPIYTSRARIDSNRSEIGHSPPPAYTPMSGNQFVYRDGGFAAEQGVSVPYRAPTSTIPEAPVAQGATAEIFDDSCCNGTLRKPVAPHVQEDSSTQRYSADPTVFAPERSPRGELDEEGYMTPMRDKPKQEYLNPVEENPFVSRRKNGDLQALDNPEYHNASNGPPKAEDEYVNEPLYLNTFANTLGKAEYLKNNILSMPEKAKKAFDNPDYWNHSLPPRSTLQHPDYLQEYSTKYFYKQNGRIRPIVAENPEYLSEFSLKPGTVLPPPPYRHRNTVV
Can you tell me inhibition for the items I'm about to list?
Give bare numbers, in %.

These solved cases illustrate the format of a correct answer.
INSERT INTO results (molecule, subject_of_test, unit, recorded_result) VALUES
  ('Cc1nnc(-c2cccc(-c3ccc(C(=O)NCC4CC4)cc3)c2)o1', 'Receptor tyrosine-protein kinase erbB-4 (Homo sapiens) (UniProt Q15303)', '%', 12.5),
  ('c1ccc(-c2n[nH]cc2-c2ccnc(-c3ccc(OCCn4ccnc4)cc3)c2)nc1', 'Receptor tyrosine-protein kinase erbB-4 (Homo sapiens) (UniProt Q15303)', '%', 3.39),
  ('CS(=O)(=O)CCNCc1ccc(-c2ccc3ncnc(Nc4ccc(OCc5ccccc5)cc4)c3c2)o1', 'Receptor tyrosine-protein kinase erbB-4 (Homo sapiens) (UniProt Q15303)', '%', 96.6),
  ('CC1(C)CC(n2cnc(-c3ccc(F)cc3)c2-c2ccnc(N)n2)CC(C)(C)N1', 'Receptor tyrosine-protein kinase erbB-4 (Homo sapiens) (UniProt Q15303)', '%', 3.58),
  ('N#Cc1ccc2c(-c3ccnc(NC4CC4)n3)c(-c3ccc(F)cc3)nn2c1', 'Receptor tyrosine-protein kinase erbB-4 (Homo sapiens) (UniProt Q15303)', '%', 13.4),
  ('Cc1ccc(-c2cc3c(NC(=O)C4CC4)ncnc3o2)cc1', 'Receptor tyrosine-protein kinase erbB-4 (Homo sapiens) (UniProt Q15303)', '%', 11.1);

Provide inhibition for all items below, preserving their order.
1. FC(F)(F)CNc1nccc(-c2cnn3ncccc23)n1
2. COc1cc(Nc2ncc(-c3ccccc3)o2)cc(OC)c1
3. CC1=C(C(=O)Nc2ccc3[nH]ncc3c2)C(c2ccc(F)cc2)N=C(c2ccc(C(F)(F)F)nc2)N1 (stereo not given)
4. CN(c1ccc(NC(=O)NCCN2CCOCC2)cc1)c1ccnc(Nc2ccc(CS(C)(=O)=O)cc2)n1
5. COc1c(C(N)=O)cc(-c2ccc(Cl)cc2)cc1-c1ccc(S(N)(=O)=O)cc1
6. NS(=O)(=O)c1ccc(N/N=C2\C(=O)Nc3ccc(C(=O)NCc4ccncc4)cc32)cc1
7. CN(C)CCNC(=O)Nc1ccc(N(C)c2ccnc(Nc3ccc(CS(C)(=O)=O)cc3)n2)cc1

1. 14
2. 14.6
3. 11.7
4. 4.94
5. 12.9
6. 7.07
7. 9.37
